Let's look at some molecules and their measured pIC50.
molecular target: IGFR kinase (Homo sapiens); construct: purchased Millipore; test: Enzyme assay (c), IGFR kinase, Caliper LabChip; format: biochemical; details: 30 nM IGFR kinase, 6 uM ATP, 3 uM peptide mix; read-out: IGFR IC50
Sequence (P08069 31-1367): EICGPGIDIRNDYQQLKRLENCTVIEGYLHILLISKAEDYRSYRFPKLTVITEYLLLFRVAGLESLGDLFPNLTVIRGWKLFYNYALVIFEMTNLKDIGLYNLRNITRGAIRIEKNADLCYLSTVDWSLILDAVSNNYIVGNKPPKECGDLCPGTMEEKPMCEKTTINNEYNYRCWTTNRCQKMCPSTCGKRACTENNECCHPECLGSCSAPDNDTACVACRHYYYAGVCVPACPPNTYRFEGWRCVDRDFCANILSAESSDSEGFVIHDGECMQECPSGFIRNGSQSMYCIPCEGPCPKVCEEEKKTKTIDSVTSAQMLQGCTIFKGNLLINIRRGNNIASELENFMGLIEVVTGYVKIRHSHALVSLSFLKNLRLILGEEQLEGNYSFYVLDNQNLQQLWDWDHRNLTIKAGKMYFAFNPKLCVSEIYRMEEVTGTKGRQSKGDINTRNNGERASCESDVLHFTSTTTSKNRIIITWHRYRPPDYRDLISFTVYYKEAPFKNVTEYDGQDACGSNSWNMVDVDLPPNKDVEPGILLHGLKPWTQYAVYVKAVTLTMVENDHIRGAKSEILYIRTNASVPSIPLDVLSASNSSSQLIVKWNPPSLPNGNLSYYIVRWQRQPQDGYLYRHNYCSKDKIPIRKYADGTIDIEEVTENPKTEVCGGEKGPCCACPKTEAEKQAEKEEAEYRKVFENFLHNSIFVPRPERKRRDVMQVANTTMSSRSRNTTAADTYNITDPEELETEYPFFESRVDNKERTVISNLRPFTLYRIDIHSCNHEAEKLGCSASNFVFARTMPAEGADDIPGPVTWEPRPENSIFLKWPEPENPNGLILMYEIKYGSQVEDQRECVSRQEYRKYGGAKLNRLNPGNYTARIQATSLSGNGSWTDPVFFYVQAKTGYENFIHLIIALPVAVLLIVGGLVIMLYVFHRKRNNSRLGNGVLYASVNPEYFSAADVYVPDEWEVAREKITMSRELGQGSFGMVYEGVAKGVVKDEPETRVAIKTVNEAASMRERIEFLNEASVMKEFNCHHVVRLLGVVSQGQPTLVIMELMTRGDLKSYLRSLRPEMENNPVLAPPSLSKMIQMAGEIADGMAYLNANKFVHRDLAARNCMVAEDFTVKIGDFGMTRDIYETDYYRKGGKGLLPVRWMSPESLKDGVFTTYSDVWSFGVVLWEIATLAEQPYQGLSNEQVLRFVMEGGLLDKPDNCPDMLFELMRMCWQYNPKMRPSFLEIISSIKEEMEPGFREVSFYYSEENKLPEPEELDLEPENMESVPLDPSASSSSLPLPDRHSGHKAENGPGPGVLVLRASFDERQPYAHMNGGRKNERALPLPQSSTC
Hey, just a heads up that pIC50 is the negative log base 10 of the concentration in molar.

The following molecules have reported results that may help.
COc1cc(N2CC3CN(C)CC(C2)O3)ccc1Nc1ncc(Cl)c(-c2cnc3c(F)cccn23)n1 [Example 203] : 8.05
COc1cc(CN2CCC(O)CC2)ccc1Nc1ncc(Cl)c(-c2cnc3ccccn23)n1 [Example 21.5] : 7.55
COCCOC(=O)N1CCN(c2ccc(Nc3ncc(Cl)c(-c4cnc5ccccn45)n3)c(OC)c2)CC1 [Example 45] : 7.62
COc1cc(N2CCN(C(C)(C)CO)CC2)ccc1Nc1ncc(C)c(-c2cnc3ccccn23)n1 [Example 229] : 7.70
COc1cc(N2CCN(C(=O)CO)CC2)ccc1Nc1ncc(Cl)c(-c2cnc3c(F)cccn23)n1 [Example 180] : 7.60

Exam item: I have this molecule here, COc1cc(N2CCN(C[C@H](C)O)CC2)ccc1Nc1ncc(C)c(-c2cnc3ccccn23)n1 [Example 104] , and I need its recorded pIC50.
Marked response: 7.54

Exam item: I have this molecule here, COc1cc(N2CCN(C(=O)C3(O)CC3)CC2)ccc1Nc1ncc(Cl)c(-c2cnc3ccccn23)n1 [Example 22] , and I need its recorded pIC50.
Marked response: 7.82

Exam item: I have this molecule here, COc1cc(C2CCNCC2)ccc1Nc1ncc(F)c(-c2cnc3ccccn23)n1 [Example 86] , and I need its recorded pIC50.
Marked response: 7.92

Exam item: I have this molecule here, COc1cc(N2CC3CN(C(=O)CO)CC(C2)O3)ccc1Nc1ncc(Cl)c(-c2cnc3c(F)cccn23)n1 [Example 212] , and I need its recorded pIC50.
Marked response: 7.72

Exam item: I have this molecule here, COCCN1CCN(c2ccc(Nc3ncc(F)c(-c4cnc5ccccn45)n3)c(OC)c2)CC1 [Example 82] , and I need its recorded pIC50.
Marked response: 7.37

Exam item: I have this molecule here, COc1cc(OC2CCN(S(C)(=O)=O)CC2)ccc1Nc1ncc(Cl)c(-c2cnc3ccccn23)n1 [Example 8] , and I need its recorded pIC50.
Marked response: 7.70

Exam item: I have this molecule here, COc1cc(OC2CN(CC(C)(C)O)C2)ccc1Nc1ncc(Cl)c(-c2cnc3ccccn23)n1 [Example 63] , and I need its recorded pIC50.
Marked response: 7.80

Exam item: I have this molecule here, COc1cc(CN2CC[C@H](O)C2)ccc1Nc1ncc(Cl)c(-c2cnc3ccccn23)n1 [Example 20] , and I need its recorded pIC50.
Marked response: 7.72

Exam item: I have this molecule here, COc1cc(N2CCN(C[C@@H](C)O)CC2)ccc1Nc1ncc(C)c(-c2cnc3ccccn23)n1 [Example 105] , and I need its recorded pIC50.
Marked response: 7.59

Exam item: I have this molecule here, COc1cc(N2CCN(CCO)CC2)ccc1Nc1ncc(C(F)(F)F)c(-c2cnc3ccccn23)n1 [Example 109] , and I need its recorded pIC50.
Marked response: 7.80

Exam item: I have this molecule here, COc1cc(C(C)C(=O)N2CCN(CCO)CC2)ccc1Nc1ncc(Cl)c(-c2cnc3ccccn23)n1 (stereo not shown) [Example 3.41] , and I need its recorded pIC50.
Marked response: 7.80

Exam item: I have this molecule here, COc1cc(C2CCN(C(=O)[C@H](C)O)CC2)ccc1Nc1ncc(Cl)c(-c2cnn3ccccc23)n1 [Example 139] , and I need its recorded pIC50.
Marked response: 7.92

Exam item: I have this molecule here, COc1cc(N2CCN(C(C)(C)CO)CC2)ccc1Nc1ncc(F)c(-c2cnc3ccccn23)n1 [Example 228] , and I need its recorded pIC50.
Marked response: 7.62

Exam item: I have this molecule here, COc1cc(N2CCNC(C(=O)N(C)C)C2)ccc1Nc1ncc(Cl)c(-c2cnc3ccccn23)n1 (stereo not shown) [Example 19] , and I need its recorded pIC50.
Marked response: 7.96

Exam item: I have this molecule here, COc1cc(N2CC[C@@H](N(C)C)C2)ccc1Nc1ncc(F)c(-c2cnc3ccccn23)n1 [Example 76] , and I need its recorded pIC50.
Marked response: 7.48

Exam item: I have this molecule here, COc1cc(N2CCN(C(C)=O)CC2)ccc1Nc1ncc(Cl)c(-c2cnc3ccc(Br)cn23)n1 [Example 126.1] , and I need its recorded pIC50.
Marked response: 8.05

Exam item: I have this molecule here, COc1cc(N2CC3CNCC(C2)O3)ccc1Nc1ncc(Cl)c(-c2cnn3ccccc23)n1 [Example 149] , and I need its recorded pIC50.
Marked response: 8.15
